- System: NCI-H1648
- Assay Details: relative viability (nuclei count vs DMSO), 5 days (fraction); higher = more cells survive
- Experimental Setup: first compound 0.253 µM
Value Kind: relative viability

>  <Compound>
COc1nc(C)cnc1NS(=O)(=O)c1cccnc1-c1ccc(-c2nnco2)cc1 [Zibotentan] + COc1cccc2cc(-c3nc([C@H]4CC[C@H](C(=O)O)CC4)n4ncnc(N)c34)[nH]c12 [OSI-027] (partner 0.5 µM)

>  <Obs Value>
0.241

$$$$
>  <Compound>
O=c1cc(-c2cccc3c2Sc2ccccc2S3)oc(N2CCOCC2)c1 + O=C(CCCCCCC(=O)Nc1ccccc1)NO [Vorinostat] (partner 1 µM)

>  <Obs Value>
0.468

$$$$
>  <Compound>
O=c1cc(-c2cccc3c2Sc2ccccc2S3)oc(N2CCOCC2)c1 + CC(=O)Nc1cccc(-n2c(=O)n(C3CC3)c(=O)c3c(Nc4ccc(I)cc4F)n(C)c(=O)c(C)c32)c1 [Trametinib] (partner 0.02 µM)

>  <Obs Value>
0.515

$$$$
>  <Compound>
COc1nc(C)cnc1NS(=O)(=O)c1cccnc1-c1ccc(-c2nnco2)cc1 [Zibotentan] + CC(=O)c1c(C)c2cnc(Nc3ccc(N4CCNCC4)cn3)nc2n(C2CCCC2)c1=O [Palbociclib] (partner 0.5 µM)

>  <Obs Value>
0.276

$$$$
>  <Compound>
O=c1cc(-c2cccc3c2Sc2ccccc2S3)oc(N2CCOCC2)c1 + COc1cccc2cc(-c3nc([C@H]4CC[C@H](C(=O)O)CC4)n4ncnc(N)c34)[nH]c12 [OSI-027] (partner 0.5 µM)

>  <Obs Value>
0.257

$$$$
